target-or-test-system: recombinant human transglutaminase 2 (Homo sapiens, UniProt P21980)
Sequence (P21980 whole entry): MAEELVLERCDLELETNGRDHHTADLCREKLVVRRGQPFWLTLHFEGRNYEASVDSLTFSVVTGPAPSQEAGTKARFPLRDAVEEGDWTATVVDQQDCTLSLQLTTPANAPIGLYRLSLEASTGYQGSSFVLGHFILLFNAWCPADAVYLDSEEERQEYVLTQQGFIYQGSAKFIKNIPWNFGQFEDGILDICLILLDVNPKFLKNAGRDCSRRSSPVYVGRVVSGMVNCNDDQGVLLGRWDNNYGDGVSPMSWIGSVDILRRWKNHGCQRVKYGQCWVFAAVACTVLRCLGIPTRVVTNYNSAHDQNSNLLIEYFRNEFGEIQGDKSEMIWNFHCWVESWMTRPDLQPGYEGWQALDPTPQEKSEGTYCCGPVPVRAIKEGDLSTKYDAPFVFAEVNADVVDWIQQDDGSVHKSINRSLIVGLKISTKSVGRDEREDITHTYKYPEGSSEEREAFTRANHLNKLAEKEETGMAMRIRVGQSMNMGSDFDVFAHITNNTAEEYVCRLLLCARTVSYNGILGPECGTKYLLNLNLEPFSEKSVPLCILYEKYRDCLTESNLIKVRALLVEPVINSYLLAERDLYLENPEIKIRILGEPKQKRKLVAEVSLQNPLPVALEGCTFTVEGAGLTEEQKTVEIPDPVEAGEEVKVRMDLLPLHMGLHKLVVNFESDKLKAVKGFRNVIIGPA
method-summary: Transglutaminase assay: incorporation of dansylcadaverine into dimethylcasein (DCC-assay)
Type: biochemical
experimental-context: recombinant human TG2 10 nM, dansylcadaverine/dimethylcasein; read-out: IC50 TG2
pIC50: −log10 of the molar value.
readout-label: pIC50

# count of solved cases: 4
compound: CCNC(=O)C(=O)CC[C@H](NC(=O)c1snnc1CO)C(=O)Nc1cccn(CC2C3CC4CC(C3)CC2C4)c1=O (some centres unmarked) [Compound I-84]
reported-value: 6.22 to 6.82
//
compound: CCNC(=O)C(=O)CC[C@H](NC(=O)c1cnnn1C)C(=O)Nc1cccn(CC(=O)NC2C3CC4CC(C3)CC2C4)c1=O (some centres unmarked) [Compound I-56]
reported-value: > 6.82
//
compound: CCNC(=O)C(=O)CC[C@H](NC(=O)c1nc(Br)cs1)C(=O)Nc1cccn(CC(=O)NC2C3CC4CC(C3)CC2C4)c1=O (some centres unmarked) [Compound I-50]
reported-value: > 6.82
//
compound: CCNC(=O)C(=O)CC[C@H](NC(=O)c1cnccn1)C(=O)Nc1cccn(CC(=O)NC2C3CC4CC2CC(O)(C4)C3)c1=O (some centres unmarked) [Compound I-58]
reported-value: 6.22 to 6.82

What value of pIC50 on recombinant human transglutaminase 2 (Homo sapiens, UniProt P21980) does CCNC(=O)C(=O)CC[C@H](NC(=O)c1oc(Br)cc1C)C(=O)Nc1cccn(CC(=O)NC2C3CC4CC(C3)CC2C4)c1=O (some centres unmarked) [Compound I-45] have?
> 6.82

What value of pIC50 on recombinant human transglutaminase 2 (Homo sapiens, UniProt P21980) does CCNC(=O)C(=O)CC[C@H](NC(=O)c1cc(Cl)sc1Cl)C(=O)Nc1cccn(CC(=O)NC2C3CC4CC(C3)CC2C4)c1=O (some centres unmarked) [Compound I-46] have?
> 6.82

What value of pIC50 on recombinant human transglutaminase 2 (Homo sapiens, UniProt P21980) does CCNC(=O)C(=O)CC[C@H](NC(=O)c1csnn1)C(=O)Nc1cccn(CC(=O)NC23CC(C2)C3)c1=O [Compound I-117] have?
6.22 to 6.82

What value of pIC50 on recombinant human transglutaminase 2 (Homo sapiens, UniProt P21980) does CCNC(=O)C(=O)CC[C@H](NC(=O)c1oc2ccccc2c1C)C(=O)Nc1cccn(CC(=O)N[C@@H]2C[C@@H]3CC[C@H]2C3)c1=O [Compound I-68] have?
> 6.82
